Cited source: the RNAGym collection of RNA variant scans (doi:10.7554/elife.80360)

Reported self-cleavage is given for each of the following variants.
B1: Twister Ribozyme (parent)
chain: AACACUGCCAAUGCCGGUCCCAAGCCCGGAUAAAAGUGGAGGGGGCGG

variants of: B1; test: self-cleavage, relative activity (ratio to wild type); higher = more cleavage; co-transcriptional
MEASURED PROPERTY: self-cleavage

> print(dat)
   variant.identifier  result
1           U18C A40C  0.0612
2           C15A A33U   0.541
3           C15U C21G  0.0408
